Cited source: patent US20260317324A1

biological target: BRAF G466V (Homo sapiens, UniProt P15056, G466V); construct: Horizon Discovery (HCT-116 BRAF−/− cells); host or cells: HCT-116 BRAF−/− cells, clone 8, lentiviral transduction; assay: BRAF HiBiT degradation assay, C-terminal HiBiT-tagged BRAF G466V overexpressed in HCT-116 BRAF−/− cells (clone 8), Nano-Glo HiBiT Lytic assay; format: cell-based; conditions: HCT-116; BRAF G466V; percentage protein degraded at maximal compound effect relative to DMSO
Sequence (P15056 whole entry G466V): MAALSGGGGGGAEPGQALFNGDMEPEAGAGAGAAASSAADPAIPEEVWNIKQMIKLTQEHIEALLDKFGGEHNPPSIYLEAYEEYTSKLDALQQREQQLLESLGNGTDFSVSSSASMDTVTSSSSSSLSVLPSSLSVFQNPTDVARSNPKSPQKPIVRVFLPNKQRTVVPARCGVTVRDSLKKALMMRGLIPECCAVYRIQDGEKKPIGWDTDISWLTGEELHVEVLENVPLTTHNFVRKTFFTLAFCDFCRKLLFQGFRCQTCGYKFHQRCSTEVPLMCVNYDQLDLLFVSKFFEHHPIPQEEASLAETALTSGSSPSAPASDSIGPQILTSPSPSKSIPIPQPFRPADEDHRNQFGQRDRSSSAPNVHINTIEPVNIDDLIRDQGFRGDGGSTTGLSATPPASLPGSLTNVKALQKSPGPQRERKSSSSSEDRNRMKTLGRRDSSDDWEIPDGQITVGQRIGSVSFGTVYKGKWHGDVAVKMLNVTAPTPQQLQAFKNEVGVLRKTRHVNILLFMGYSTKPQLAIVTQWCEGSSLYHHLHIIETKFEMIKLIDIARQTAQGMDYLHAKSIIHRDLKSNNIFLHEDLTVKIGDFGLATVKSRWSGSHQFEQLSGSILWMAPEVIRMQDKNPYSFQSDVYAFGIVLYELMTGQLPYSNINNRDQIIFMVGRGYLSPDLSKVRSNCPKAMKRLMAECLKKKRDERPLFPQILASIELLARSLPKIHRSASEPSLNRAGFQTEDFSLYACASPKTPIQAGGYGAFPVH
Documented Dmax across a set of molecules

Illustrative cases are given below, each with its answer.
Molecule	Readout label	Value reported
CCCS(=O)(=O)Nc1cccc(-c2nc(CCC3CCN(C(=O)C4CCN(C(=O)C5CCN(c6ccc(C7CCC(=O)NC7=O)cn6)CC5)CC4)CC3)sc2-c2ccnc(N)n2)c1F (racemic) [Compound 205]	Dmax	30 to 70%
CCCS(=O)(=O)Nc1cccc(-c2nc(C(C)(C)C)sc2-c2ccnc(Nc3cccc(OC4CCN(C(=O)[C@@H]5CCN(c6ccc(C7CCC(=O)NC7=O)cn6)C5)CC4)c3)n2)c1F (mixture of isomers) [Compound 94]	Dmax	30 to 70%
CCCS(=O)(=O)Nc1cccc(-c2nc(C3CCC4(CC3)CCN(C(=O)CCCCCc3ccc5c(c3)C(=O)N(C3CCC(=O)NC3=O)C5)CC4)sc2-c2ccnc(N)n2)c1F (racemic) [Compound 235]	Dmax	30 to 70%

Q. May I ask what Dmax has been recorded for CCCS(=O)(=O)Nc1cccc(-c2nc(C3CCN(C(=O)C4CCN(C(=O)C5CCN(c6ccc(C7CCC(=O)NC7=O)cn6)CC5)CC4)CC3)sc2-c2ccncn2)c1F (racemic) [Compound 220] ?
A. 30 to 70%

Q. Now the molecule CCCS(=O)(=O)Nc1cccc(-c2nc(C(C)(C)C)sc2-c2ccnc(NCC3CCN(CC4CCN(c5ccc(C(=O)N[C@H]6CCC(=O)NC6=O)nc5)CC4)CC3)n2)c1F [Compound 147]
A. < 30%

Q. Now the molecule CCN(C)S(=O)(=O)Nc1cccc(-c2nc(C(C)(C)C)sc2-c2ccnc(Nc3ccc(N4CCN(C(=O)[C@H]5CC[C@H](CN6CCc7cc(C8CCC(=O)NC8=O)ccc7C6)CC5)CC4)cn3)n2)c1F (mixture of isomers) [Compound 125]
A. < 30%

Q. Now the molecule CCCS(=O)(=O)Nc1cccc(-c2nc(C(C)(C)C)sc2-c2ccnc(NC3CC4(C3)CN(C(=O)CN3CCC5(CC3)CN(c3ccc6c(c3)C(=O)N(C3CCC(=O)NC3=O)C6=O)C5)C4)n2)c1F (racemic) [Compound 152]
A. < 30%

Q. Now the molecule CCCS(=O)(=O)Nc1cccc(-c2nc(C3CCN(CC4CCN(C(=O)[C@H]5CC[C@H](Oc6ccc(C7CCC(=O)NC7=O)cc6)CC5)CC4)CC3)sc2-c2ccnc(N)n2)c1F (mixture of isomers) [Compound 224]
A. 30 to 70%

Q. Now the molecule CCN(C)S(=O)(=O)Nc1cccc(-c2nc(C(C)(C)C)sc2-c2ccnc(Nc3ccc(N4CCN(C(=O)C5(C)CCN(c6ccc(C7CCC(=O)NC7=O)cn6)CC5)CC4)cn3)n2)c1F (racemic) [Compound 42]
A. < 30%

====

molecular target: BRAF V600E (Homo sapiens, UniProt P15056, V600E); construct: endogenous C-terminal HiBiT fusion tag on BRAF V600E allele; endogenous in cells; host or cells: A375 clone 1F10 (CRISPR-Cas9 knock-in of the HiBiT tag; parental A375 from ATCC); test: BRAF HiBiT degradation assay, C-terminal HiBiT-tagged BRAF V600E A375 cells (clone 1F10), Nano-Glo HiBiT Lytic assay; assay type: cell-based; details: A375 (BRAF V600E); DC50 at 50%: fitted conc. at Y=50
Sequence (P15056 whole entry V600E, the tested form may be a part): as the sequence (P15056 whole entry G466V) above, with V466G, V600E counted along it
Readout label: DC50

Illustrative cases are given below, each with its answer.
Compound	Value reported
CCCS(=O)(=O)Nc1cccc(-c2nc(C(C)(C)C)sc2-c2ccnc(Nc3ccc(N4CCN(CC5CCN(c6ccc([C@H]7CCC(=O)NC7=O)cc6)CC5)CC4)cc3)n2)c1F [Compound 59]	10 to 50 nM
CCCS(=O)(=O)Nc1cccc(-c2nc(C(C)(C)C)sc2-c2ccnc(Nc3ccc(C4CCN(C(=O)CN5CCN(c6cc(C7CCC(=O)NC7=O)ccn6)CC5)CC4)cc3)n2)c1F (racemic) [Compound 174]	10 to 50 nM

Q. May I ask what DC50 has been recorded for CCCS(=O)(=O)Nc1cccc(-c2nc(C(C)(C)C)sc2-c2ccnc(NC3CC4(CCN(C[C@H]5CC[C@H](Oc6ccc(C7CCC(=O)NC7=O)cc6)CC5)CC4)C3)n2)c1F (mixture of isomers) [Compound 130] ?
A. > 500 nM

Q. Now the compound CCCS(=O)(=O)Nc1cccc(-c2nc(C3CCN(C(=O)CN4CCN(c5ccc6c(c5)C(=O)N(C5CCC(=O)NC5=O)C6=O)CC4)CC3)sc2-c2ccnc(N)n2)c1F (racemic) [Compound 233]
A. 10 to 50 nM

Q. Now the compound CCCS(=O)(=O)Nc1cccc(-c2nc(-c3ccc(C4CCN(C(=O)C5CCN(c6ccc(C7CCC(=O)NC7=O)cn6)CC5)CC4)cc3)sc2-c2ccnc(N)n2)c1F (racemic) [Compound 201]
A. 10 to 50 nM
